We begin with a simple list: items and their reported pre-steady-state target cleavage rate.
tested on: MIWI (PIWIL1) piRISC loaded with L1MC piRNA (30 nt); assay: pre-steady-state target cleavage rate (min^-1); higher = faster piRNA-guided slicing of the target; conditions: guide: L1MC piRNA 5'p-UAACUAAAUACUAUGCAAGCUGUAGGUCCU; auxiliary factor: 500 nM mouse GTSF1;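 also: 1 nM active piRISC with 0.1 nM target library at 33 °C single turnover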
Whole data set: some 8,200 sequences, median “pre-steady-state target cleavage rate” near 0.024, cut for the highest 2% near 1.3. The full list was thinned out, with the highest values kept by preference.
readout-kind: pre-steady-state target cleavage rate

> print(dat)
                            polymer.sequence  reported.measurement
 1           UCGACCUGACAGCUUGCAUAGUAUUUAGUUA                  1.25
 2           UCCACCUACAGCUUGCAUAGUAUUUAGGUUA                 0.409
 3            ACCUCCUACAGCUUGCAUAGUAUUUAGUUA                  1.35
 4           UCCUCCUACAGCUUGCAUAGUAUUUUAGUUA                  1.04
 5           UCGACCUACAGCUUGACAUAGUAUUUAGUUA                 0.952
 6            AGGAGCUAGAGCUUGCAUAGUAUUUAGUUA                 0.922
 7            AGCACCUACAGCUUGCUUAGUAUUUAGUUA                 0.978
 8             AGGACCUACAGCUUCAUAGUAUUUAGUUA                  1.11
 9             UGGACCUACAGCUUCAUAGUAUUUAGUUA                  1.36
10           AGGACCUGACAGCUUGCAUAGUAUUUAGUUA                  1.17
11  UCCUCCUACAGCUUGCAUAGUAUUUAGUUC [g2:g26:cont:t1C]                  1.09
12            UCCUCCUACAGCUUGCAUACUAUUUAGAUA                0.0831
13            UCCUGGAUGAGCUUGCAUAGUAUUAAGUAA                 0.197
14            UCCUGCUACAGCUUGCAUGGUAUUUAGUUA                   1.2
15            UCCUCGUACAGCUUGCAUAGUAUUUAGUUA                  1.46
16            UCGACCUACAGCUUGCAUGGUAUUUAGUUA                  1.73
17            UCGUGGUACAGCUUGCAUAGUAUUUAGUUA                  1.23
18            ACGACCUACAGCUUGGAUAGUAUUUAGUUA                  1.68
19            UCCUCCUACAGCUUGCAUGGUAUUUAGUUA                  1.66
20  UCCUCCUACAGCUUGCAUAGUAUUUAGUUA [g2:g26:cont:t1A]                  1.32
21            UGGUCGUACAGCUUGCAUAGUAUUUAGUUA                  1.33
22             UCCUCCUACAGCUUGCAUGUAUUUAGUUA                 0.428
23            AGGACCUUCAGCUUGCAUUGUAUUUAGUUA                 0.966
24            UCCUGGUACAGCUUGCAAAGUAUUUAGUUA                 0.711
25            UCCUUCUACAGCUUGCAUAGUAUUUAGUUA                  1.02
26            UCGUCGUACAGCUUGCAUAGUAUUUAGUUA                  1.31
27           UCCUGCUACAGUCUUGCAUAGUAUUUAGUUA                 0.643
28            UCCACCUACAGCUUGCAUGGUAUUUAGUUA                   1.3
29           UGGACCUACAGCUUGACAUAGUAUUUAGUUA                 0.986
30            UCGACCUACAGCUUGGAUAGUAUUUAGUAA                 0.859
31            UCGACCUACAGCUUGGUUAGUAUUUACAAA                0.0826
32            UCCUGGUACAGCUUGCAUAGUAGUUAGUUA                 0.433
33            UCGACCUACAGCUUGGUUAGUAUUUAGUUA                  1.42
34            UCGACCUACAGCUUACAUAGUAUUUAGUUA                  1.59
35            UGGACCUACAGCUUGCAUGGUAUUUAGUUA                  1.38
36            UGCACCUACAGCUUGGAUAGUAUUUAGUUA                  1.18
37            UCGACCUACAGCUUGGAUAGUAUUUAGUUA                  1.72
38            UCCACCUAGAGCUUGCUUAGUAUUUAGUUA                 0.549
39            UCCUGGAUGUCCUUGCAUAGUAUAUUGUUA               0.00947
40            UCGACCUACAGCUUGGAUAGUAUUUAGAUA                 0.444
41            AGGACCUACAGCUUGGUUAGUAUUUACAAA                0.0786
42            UCGACCUACAGCUUGCAAAGUAUUUACAAA                  0.33
43            UGGACCUACAGCUUGCAUAGUAUGUAGUUA                 0.332

---

tested on: MIWI (PIWIL1) piRISC loaded with L1MC piRNA (30 nt); test: pre-steady-state target cleavage rate (min^-1); higher = faster piRNA-guided slicing of the target; conditions: guide: L1MC piRNA 5'p-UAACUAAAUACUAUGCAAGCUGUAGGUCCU; auxiliary factor: none (no GTSF1);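 also: 1 nM active piRISC with 0.1 nM target library at 33 °C single turnover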
Over roughly 8,200 sequences, “pre-steady-state target cleavage rate” has its median near 0.024; the highest 2% begin near 1.3. The sample holds the highest values, similar sequences and a random draw of the others, so the mix is not that of the screen.
We begin with a simple list: items and their reported pre-steady-state target cleavage rate.
readout-kind: pre-steady-state target cleavage rate

> print(dat)
                   polymer.sequence  reported.measurement
 1  UGGACCUACAGCCUUGCAUAGUAUUUAGUUA                0.0496
 2  UCGAUCCUACAGCUUGCAUAGUAUUUAGUUA                0.0686
 3  AGGAUCCUACAGCUUGCAUAGUAUUUAGUUA                 0.118
 4  UCGACCUACAGCCUUGCAUAGUAUUUAGUUA                0.0668
 5  AGGUACCUACAGCUUGCAUAGUAUUUAGUUA                 0.481
 6  AGGACCUACAGCCUUGCAUAGUAUUUAGUUA                0.0878
 7   UGGACCUACAGCUUGCAUAGUAUUUAGUCA                0.0559
 8  UGGAUCCUACAGCUUGCAUAGUAUUUAGUUA                0.0869
 9   UCCACCUACAGCUUGCAUAGUAAAUAGUUA               0.00722
10   UCCACCUACAGCCUGCAUAGUAUUUAGUUA                0.0634

---

tested on: MIWI (PIWIL1) piRISC loaded with L1MC piRNA (30 nt); assay: pre-steady-state target cleavage rate (min^-1); MIWI and MILI are mouse PIWI proteins and EfPiwi is from a freshwater sponge; tags in brackets are library labels; higher = faster piRNA-guided slicing of the target; settings: guide: L1MC piRNA 5'p-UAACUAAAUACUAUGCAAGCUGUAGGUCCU; auxiliary factor: 500 nM mouse GTSF1;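 also: 1 nM active piRISC with 0.1 nM target library at 33 °C single turnover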
The full ranking holds about 8,200 sequences; the median of “pre-steady-state target cleavage rate” is about 0.024, and the highest 2% start at about 1.3. What follows is part of a selection rich in the highest values, with near analogues and random picks from the rest.
Everything with pre-steady-state target cleavage rate lower than 0.5 is no (0); everything else, including exactly 0.5, is yes (1).

> print(dat)
                            polymer.sequence  answer.label
 1            UCGACCUACUGCUUGCAUAGUAUUUACUUA        no (0)
 2            AGCACCUACAGCUUGCAUAGUAUUUAGUAA       yes (1)
 3           UCCUCCUACAGCGUUGCAUAGUAUUUAGUUA       yes (1)
 4            UCCUGGAUCAGCUUGCAUACUAUUUUCAAA        no (0)
 5            UCCUGGAUCAGCUAGCAUAGUAUUUAGAUA        no (0)
 6           UCCACCUACAGCGUUGCAUAGUAUUUAGUUA       yes (1)
 7            AGGACCUACAGCAUCCAUAGUAUUUAGUUA        no (0)
 8            UCGACCUACAGGUUGCAUACUAUUUAGUUA        no (0)
 9             UCCUCCUACAGCUUGCUAGUAUUUAGUUA        no (0)
10            UCCUCCUACAGCGUGCAUAGUAUUUAGUUA       yes (1)
11            UCCACCUUCAGGUUGCAUAGUAUUUAGUUA       yes (1)
12            UCCACCUAGUGCUUGCAUAGUAUUUUCAAA        no (0)
13            AGGUCCUACAGCUUGCUUAGUAUUUAGUUA       yes (1)
14            UCCUCCUACAGCUUGCUUAGUAUAUAGUUA       yes (1)
15            UCCACCUACACGUUGCAUAGUAUUUUCAAA        no (0)
16            AGGACCUACAGCUUGGAUAGUAUAUAGUUA       yes (1)
17            UGGACGUACAGCUUGCUUAGUAUUUAGUUA       yes (1)
18  UCCUGGAUCAGCUUGCAUAGUAUUUAGUUC [g2:g22:cont:t1C]       yes (1)
19            UCCACCUACAGCUUGCUUAGUAUUAAGUUA        no (0)
20            UCGUCCUACAGCUUGCUUAGUAUUUAGUUA       yes (1)
21            UGGACCUUCAGCUUGCUUAGUAUUUAGUUA       yes (1)
22            UCGACGUACAGCUUGCUUAGUAUUUAGUUA       yes (1)
23            UCCUGGUACAGCUUGCAUACAAUUUAGUAA        no (0)
24            UGGUCCUACUGCUUGCAUAGUAUUUAGUUA       yes (1)
25            UCGACCUACAGCUUGCUUAGUAUAUAGUUA       yes (1)
26            UCCACCUACAGCUUGCUUAGUAUAUAGUUA        no (0)
27            UCCUGGAUCUGCAUGCAUAGUAUUUAGUUA        no (0)
28            UGGACGUACAGCUUGCAUUGUAUUUAGUUA       yes (1)
29            AGGACCUACAGCUUGCUUAGUAUAUAGUUA       yes (1)
30            UGGACCUACACGAUGCAUAGUAUUUAGAAA        no (0)
31            UGGUCCUACAGCUUGCUUAGUAUUUAGUUA       yes (1)
32           UCCUGGAUCAGCAUUGCAUAGUAUUUAGUUA       yes (1)
33           UCCACCUACAGCUUGCAUAGUAUUUCAGUUA       yes (1)
34           UCCUCCUACAGCUGUGCAUAGUAUUUAGUUA       yes (1)
35           AGGACCUACAGCUUGCAUAGUAGUUUAGUUA        no (0)
36            AGGACGUACAGCUUGCUUAGUAUUUAGUUA       yes (1)
37            UCCACCUACACCUUGCAUAGUAUAUAGUUA       yes (1)
38             UCCUGGAUCAGCUUGCAUAGUAUUUAGUA       yes (1)
39            UCCUGGAACAGCUAGCAUAGUAUUUAGUUA       yes (1)
40           UCCUGGAUCAGCUUGCAUAGUAUUUAGUUUA       yes (1)
41           UGGACCUACAGCUUGCAUAGUAUUUCAGUUA        no (0)
42           UCCUGGAUCAGCUUUGCAUAGUAUUUAGUUA       yes (1)
43            UGGACCUACAGCUUGCUUAGUAUAUAGUUA       yes (1)
44            AGGACGUACAGCUUGCAAAGUAUUUAGUUA       yes (1)
45            AGGACCUACAGCUUGCAUAGUAUUAUCUAA        no (0)
46            UGGACCUACAGAUUGCAUAGUAUUUAGUUA       yes (1)
47            AGGACCUACAGGAAGCAUAGUAUUUACAAA        no (0)
48           UCCUGGAUCAGCUUGCUAUAGUAUUUAGUUA        no (0)
